Let's look at some molecules and their measured pEC50.
- measured on: PPARalpha (Homo sapiens)
- Construct: human PPARalpha receptor (amino acids S167-Y468); pcDNA3 vector, CMV promoter
- Sequence (Q07869 167-468): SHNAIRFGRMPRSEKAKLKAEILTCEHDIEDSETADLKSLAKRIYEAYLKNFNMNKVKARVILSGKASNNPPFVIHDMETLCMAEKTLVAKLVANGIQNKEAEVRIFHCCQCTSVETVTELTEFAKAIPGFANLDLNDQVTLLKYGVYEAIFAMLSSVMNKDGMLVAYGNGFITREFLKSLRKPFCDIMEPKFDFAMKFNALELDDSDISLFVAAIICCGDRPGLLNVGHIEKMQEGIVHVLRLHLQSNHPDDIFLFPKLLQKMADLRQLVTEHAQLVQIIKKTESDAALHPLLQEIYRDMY
- method: Cellular PPARalpha assay (stably transfected HEK luciferase reporter cell line)
- cond: GR-GAL4-humanPPARalpha-LBD
Interpret pEC50 as the negative base-10 log of the concentration measured in mol/L.

// worked examples, pEC50 included
molecule: CCC(CCO[C@@H]1CCC[C@H](OCc2nc(-c3ccc(F)cc3)oc2C)C1)C(=O)O (stereo partly drawn)
reading: 7.39
--
molecule: COC(CO[C@@H]1CCC[C@H](OCc2nc(-c3ccc(C)cc3C)oc2C)C1)C(=O)O (stereo partly drawn)
reading: 7.85
--
molecule: Cc1cccc(-c2nc(CO[C@H]3CCC[C@@H](OCC(OC/C=C/c4ccccc4)C(=O)O)C3)c(C)o2)c1 (stereo partly drawn)
reading: 8.21

Exercise: # return recorded pEC50 for entry CCOC(CO[C@@H]1CCC[C@H](OCc2nc(-c3ccc(OC(F)(F)F)cc3)oc2C)C1)C(=O)O (stereo partly drawn)
Key: 7.59

Exercise: Look up and report measured pEC50 for this entry: Cc1cccc(-c2nc(CO[C@H]3CCC[C@@H](OCC(Cc4cccc(C(F)(F)F)c4)C(=O)O)C3)c(C)o2)c1 (stereo partly drawn)
Key: 7.11

Exercise: Name the recorded pEC50 of the item Cc1ccc(-c2nc(CO[C@H]3CCC[C@@H](OC[C@@H](OCc4ccc(C(F)(F)F)cc4)C(=O)O)C3)c(C)o2)cc1 in your answer.
Key: 9.22

Exercise: For the molecule C#CCOC(CO[C@@H]1CCC[C@H](OCc2nc(-c3cccc(C)c3)oc2C)C1)C(=O)O (stereo partly drawn) , give its measured pEC50 value.
Key: 7.37

Exercise: Read off the recorded pEC50 for CCCOC(CO[C@@H]1CCC[C@H](OCc2nc(-c3cccc(C(F)(F)F)c3)oc2C)C1)C(=O)O (stereo partly drawn)
Key: 7.66

Exercise: Give me measured pEC50, please, for this molecule: COC(CO[C@@H]1CCC[C@H](OCc2nc(-c3ccc4ccccc4c3)oc2C)C1)C(=O)O (stereo partly drawn)
Key: 7.08

====

# key: entry, value: EC50
- measured on: PPARalpha (Homo sapiens)
- Construct: human PPARalpha receptor (amino acids S167-Y468); pcDNA3 vector, CMV promoter
- method: Cellular PPARalpha assay (stably transfected HEK luciferase reporter cell line)
- cond: GR-GAL4-humanPPARalpha-LBD
Output spec: scalar in nM, unitless text.

Some compounds with recorded EC50:
compound: Cc1cccc(-c2nc(CO[C@H]3CCC[C@@H](OCC(OCc4ccc(C(C)(C)C)cc4)C(=O)O)C3)c(C)o2)c1 (stereo partly shown)
measured on: PPARalpha (Homo sapiens)
EC50 [nM]: 1.5

compound: Cc1cccc(-c2nc(CO[C@H]3CCC[C@@H](OCC4(C(=O)O)CC4)C3)c(C)o2)c1
measured on: PPARalpha (Homo sapiens)
EC50 [nM]: 69

compound: CCCOC(CO[C@@H]1CCC[C@H](OCc2nc(-c3ccc(C)cc3)oc2C)C1)C(=O)O (stereo partly shown)
measured on: PPARalpha (Homo sapiens)
EC50 [nM]: 0.8

Turning now to a further record.
Exercise: Read off the recorded EC50 for COCC(CO[C@@H]1CCC[C@H](OCc2nc(-c3cccc(C)c3)oc2C)C1)C(=O)O (stereo partly shown)
Key: 24
